Source of measurements: patent US20240058424A1

- test: Blood/brain exposure to NBP-14 after intranasal administration (PK assessment)
- Type: in vivo, mice
- conditions-used: 5XFAD, mouse, brain, inhaled or intranasal, 10 mg/kg, 5XFAD mice, 10 mg/kg intranasal twice a week, T = 14W [terminal], sampling 30 min after administration; read-out: Brain Concentration
Where a SMILES comes first, the peptide text is derived from it.
readout-type: tissue level at time at 0.5 h (ng/g)
// units = ng/g; emit number, no label

Task: Report tissue level at time at 0.5 h for CSCC[C@@H]1NC(=O)[C@H](Cc2ccc(O)cc2)NC(=O)[C@H](CO)NC(=O)[C@H](CO)NC(=O)[C@H](Cc2c[nH]c3ccccc23)NC(=O)[C@H](CCCNC(=N)N)NC(=O)[C@H](Cc2c[nH]cn2)NC(=O)[C@H](Cc2ccccc2)NC(=O)[C@H](CCC(=O)O)NC(=O)[C@H](C)NC(=O)[C@H](CCCCN)NC(=O)[C@H](Cc2c[nH]c3ccccc23)NC(=O)[C@H](Cc2c[nH]cn2)NC(=O)[C@H](C(C)C)NC1=O [NBP-14] (HELM PEPTIDE1{A.E.F.H.R.W.S.S.Y.M.V.H.W.K}$PEPTIDE1,PEPTIDE1,1:R1-14:R2$$$V2.0) please.
Output: 53

====

- test: Blood/brain exposure to NBP-14 after intranasal administration (PK assessment)
- Type: in vivo, mice
- conditions-used: 5XFAD, mouse, blood, inhaled or intranasal, 10 mg/kg, 5XFAD mice, 10 mg/kg intranasal, T = 0 (single treatment), sampling 30 min after administration; read-out: Blood Concentration
Where a SMILES comes first, the peptide text is derived from it.
readout-type: level at 0.5 h (ng/mL)
// units = ng/mL; emit number, no label

Task: Report level at 0.5 h for CSCC[C@@H]1NC(=O)[C@H](Cc2ccc(O)cc2)NC(=O)[C@H](CO)NC(=O)[C@H](CO)NC(=O)[C@H](Cc2c[nH]c3ccccc23)NC(=O)[C@H](CCCNC(=N)N)NC(=O)[C@H](Cc2c[nH]cn2)NC(=O)[C@H](Cc2ccccc2)NC(=O)[C@H](CCC(=O)O)NC(=O)[C@H](C)NC(=O)[C@H](CCCCN)NC(=O)[C@H](Cc2c[nH]c3ccccc23)NC(=O)[C@H](Cc2c[nH]cn2)NC(=O)[C@H](C(C)C)NC1=O [NBP-14] (HELM PEPTIDE1{A.E.F.H.R.W.S.S.Y.M.V.H.W.K}$PEPTIDE1,PEPTIDE1,1:R1-14:R2$$$V2.0) please.
Output: 44.5

====

- test: Blood/brain exposure to NBP-14 after intranasal administration (PK assessment)
- Type: in vivo, mice
- conditions-used: 5XFAD, mouse, brain, inhaled or intranasal, 10 mg/kg, 5XFAD mice, 10 mg/kg intranasal twice a week, T = 6W [intermediate], sampling 30 min after administration; read-out: Brain Concentration
Where a SMILES comes first, the peptide text is derived from it.
readout-type: tissue level at time at 0.5 h (ng/g)
// units = ng/g; emit number, no label

Task: Report tissue level at time at 0.5 h for CSCC[C@@H]1NC(=O)[C@H](Cc2ccc(O)cc2)NC(=O)[C@H](CO)NC(=O)[C@H](CO)NC(=O)[C@H](Cc2c[nH]c3ccccc23)NC(=O)[C@H](CCCNC(=N)N)NC(=O)[C@H](Cc2c[nH]cn2)NC(=O)[C@H](Cc2ccccc2)NC(=O)[C@H](CCC(=O)O)NC(=O)[C@H](C)NC(=O)[C@H](CCCCN)NC(=O)[C@H](Cc2c[nH]c3ccccc23)NC(=O)[C@H](Cc2c[nH]cn2)NC(=O)[C@H](C(C)C)NC1=O [NBP-14] (HELM PEPTIDE1{A.E.F.H.R.W.S.S.Y.M.V.H.W.K}$PEPTIDE1,PEPTIDE1,1:R1-14:R2$$$V2.0) please.
Output: 19.3
